Taken from patent US20200339625A1.

Consider the following compounds; for each one, report its Stomach uptake.
tested on: mice bearing PSMA-expressing LNCAP cancer xenografts; assay: Biodistribution of 68Ga-labeled compounds; type: in vivo; details: 1 h post-injection
Write it as a number; the unit % ID/g goes unstated.

Dear colleague, I am looking for the recorded Stomach uptake of the following compound: O=C([O-])CN1CCN(CC(=O)[O-])CCN(CC(=O)NCCCC[C@H](NC(=O)CNC(=O)CCCc2ccc(I)cc2)C(=O)NC[C@H]2CC[C@H](C(=O)N[C@@H](Cc3ccc4ccccc4c3)C(=O)NCCCC[C@H](NC(=O)N[C@@H](CCC(=O)O)C(=O)O)C(=O)O)CC2)CCN(CC(=O)[O-])CC1.[68Ga+3] [^68Ga-HTK03024] 0.64

Recorded Stomach uptake for Nc1ccc(CCCC(=O)NCC(=O)N[C@@H](CCCCNC(=O)CN2CCN(CC(=O)[O-])CCN(CC(=O)[O-])CCN(CC(=O)[O-])CC2)C(=O)NC[C@H]2CC[C@H](C(=O)N[C@@H](Cc3ccc4ccccc4c3)C(=O)NCCCC[C@H](NC(=O)N[C@@H](CCC(=O)O)C(=O)O)C(=O)O)CC2)cc1.[68Ga+3] [^68Ga-HTK03087] , please? 0.14

Would you kindly share the measured Stomach uptake for O=C([O-])CN1CCN(CC(=O)[O-])CCN(CC(=O)NCCCC[C@H](NC(=O)CNC(=O)CCCc2ccc([N+](=O)[O-])cc2)C(=O)NC[C@H]2CC[C@H](C(=O)N[C@@H](Cc3ccc4ccccc4c3)C(=O)NCCCC[C@H](NC(=O)N[C@@H](CCC(=O)O)C(=O)O)C(=O)O)CC2)CCN(CC(=O)[O-])CC1.[68Ga+3] [^68Ga-HTK03089] ? 0.34

---

tested on: mice bearing PSMA-expressing LNCAP cancer xenografts; test: Biodistribution of 68Ga-labeled compounds; type: in vivo; conditions: 3 h post-injection
Record form. Attribute: Seminal uptake. Fill in for each entry.
Give just the number in % ID/g; leave the unit off.

Quick one: Seminal uptake of O=C([O-])CN1CCN(CC(=O)[O-])CCN(CC(=O)NCCCC[C@H](NC(=O)CNC(=O)CCCc2ccc([N+](=O)[O-])cc2)C(=O)NC[C@H]2CC[C@H](C(=O)N[C@@H](Cc3ccc4ccccc4c3)C(=O)NCCCC[C@H](NC(=O)N[C@@H](CCC(=O)O)C(=O)O)C(=O)O)CC2)CCN(CC(=O)[O-])CC1.[68Ga+3] [^68Ga-HTK03089] ? 0.24

Using the record for O=C([O-])CN1CCN(CC(=O)[O-])CCN(CC(=O)NCCCC[C@H](NC(=O)CNC(=O)CCCc2ccc(Br)cc2)C(=O)NC[C@H]2CC[C@H](C(=O)N[C@@H](Cc3ccc4ccccc4c3)C(=O)NCCCC[C@H](NC(=O)N[C@@H](CCC(=O)O)C(=O)O)C(=O)O)CC2)CCN(CC(=O)[O-])CC1.[68Ga+3] [^68Ga-HTK03058] , report its Seminal uptake. 1.15

Fill blank: measured Seminal uptake of the compound O=C([O-])CN1CCN(CC(=O)[O-])CCN(CC(=O)NCC2CCC(C(=O)NC(Cc3c4ccccc4cc4ccccc34)C(=O)NCCCCC(NC(=O)NC(CCC(=O)O)C(=O)O)C(=O)O)CC2)CCN(CC(=O)[O-])CC1.[68Ga+3] (stereo not drawn) [^68Ga-HTK03041] is ____. 4.56

---

system: mice bearing PSMA-expressing LNCAP cancer xenografts; assay: Biodistribution of 68Ga-labeled compounds; assay type: in vivo; conditions: 1 h post-injection
Hi there, I'd appreciate the recorded Thyroid uptake for every entry that follows.
Give just the numeric value; % ID/g need not be written.

Item under review: O=C([O-])CN1CCN(CC(=O)[O-])CCN(CC(=O)NCCCC[C@H](NC(=O)CNC(=O)CCCc2ccc(I)cc2)C(=O)NC[C@H]2CC[C@H](C(=O)N[C@@H](Cc3ccc4ccccc4c3)C(=O)NCCCC[C@H](NC(=O)N[C@@H](CCC(=O)O)C(=O)O)C(=O)O)CC2)CCN(CC(=O)[O-])CC1.[68Ga+3] [^68Ga-HTK03024] . Reported Thyroid uptake? 4.39

# query: Thyroid uptake of entry O=C([O-])CN1CCN(CC(=O)[O-])CCN(CC(=O)NCCCC[C@H](NC(=O)CNC(=O)CCc2ccccc2)C(=O)NC[C@H]2CC[C@H](C(=O)N[C@@H](Cc3ccc4ccccc4c3)C(=O)NCCCC[C@H](NC(=O)N[C@@H](CCC(=O)O)C(=O)O)C(=O)O)CC2)CCN(CC(=O)[O-])CC1.[68Ga+3] [^68Ga-HTK03082] 0.58

I am curious: what Thyroid uptake value has been reported for O=C([O-])CN1CCN(CC(=O)[O-])CCN(CC(=O)NCCCC[C@H](NC(=O)CNC(=O)CCCc2ccccc2)C(=O)NC[C@H]2CC[C@H](C(=O)N[C@@H](Cc3ccc4ccccc4c3)C(=O)NCCCC[C@H](NC(=O)N[C@@H](CCC(=O)O)C(=O)O)C(=O)O)CC2)CCN(CC(=O)[O-])CC1.[68Ga+3] [^68Ga-HTK03056] ? 1.49

Quick one: Thyroid uptake of O=C([O-])CN1CCN(CC(=O)[O-])CCN(CC(=O)NCC2CCC(C(=O)NC(Cc3ccc4cc5ccccc5cc4c3)C(=O)NCCCCC(NC(=O)NC(CCC(=O)O)C(=O)O)C(=O)O)CC2)CCN(CC(=O)[O-])CC1.[68Ga+3] (stereo not shown) [^68Ga-HTK03027] ? 0.76

---

system: mice bearing PSMA-expressing LNCAP cancer xenografts; assay: Biodistribution of 68Ga-labeled compounds; type: in vivo; settings: 1 h post-injection
READOUT TYPE: Stomach uptake (% ID/g)
Express the result in % ID/g but write the number alone.

Query: Stomach uptake; subject: O=C([O-])CN1CCN(CC(=O)[O-])CCN(CC(=O)NCCCC[C@H](NC(=O)CNC(=O)CCCc2ccc(Br)cc2)C(=O)NC[C@H]2CC[C@H](C(=O)N[C@@H](Cc3ccc4ccccc4c3)C(=O)NCCCC[C@H](NC(=O)N[C@@H](CCC(=O)O)C(=O)O)C(=O)O)CC2)CCN(CC(=O)[O-])CC1.[68Ga+3] [^68Ga-HTK03058] 0.58

Recorded Stomach uptake for Cc1ccc(CCCC(=O)NCC(=O)N[C@@H](CCCCNC(=O)CN2CCN(CC(=O)[O-])CCN(CC(=O)[O-])CCN(CC(=O)[O-])CC2)C(=O)NC[C@H]2CC[C@H](C(=O)N[C@@H](Cc3ccc4ccccc4c3)C(=O)NCCCC[C@H](NC(=O)N[C@@H](CCC(=O)O)C(=O)O)C(=O)O)CC2)cc1.[68Ga+3] [^68Ga-HTK03090] , please? 0.59

Fill in the blank: the reported Stomach uptake of O=C([O-])CN1CCN(CC(=O)[O-])CCN(CC(=O)NCCCC[C@H](NC(=O)CNC(=O)CCCc2ccccc2)C(=O)NC[C@H]2CC[C@H](C(=O)N[C@@H](Cc3ccc4ccccc4c3)C(=O)NCCCC[C@H](NC(=O)N[C@@H](CCC(=O)O)C(=O)O)C(=O)O)CC2)CCN(CC(=O)[O-])CC1.[68Ga+3] [^68Ga-HTK03056] is ____. 0.27

Could you share which Stomach uptake value was measured for O=C([O-])CN1CCN(CC(=O)[O-])CCN(CC(=O)NCC2CCC(C(=O)NC(Cc3c4ccccc4cc4ccccc34)C(=O)NCCCCC(NC(=O)NC(CCC(=O)O)C(=O)O)C(=O)O)CC2)CCN(CC(=O)[O-])CC1.[68Ga+3] (stereo not shown) [^68Ga-HTK03041] ? 0.41

---

Please go through the items and note down their Tumor:Muscle ratio.
test system: mice bearing PSMA-expressing LNCAP cancer xenografts; experiment: Biodistribution of 68Ga-labeled compounds; assay type: in vivo; conditions: 1 h post-injection
Answer with the value's number alone.

Consider the molecule O=C([O-])CN1CCN(CC(=O)[O-])CCN(CC(=O)NCC2CCC(C(=O)NC(Cc3c4ccccc4cc4ccccc34)C(=O)NCCCCC(NC(=O)NC(CCC(=O)O)C(=O)O)C(=O)O)CC2)CCN(CC(=O)[O-])CC1.[68Ga+3] (centres unmarked) [^68Ga-HTK03041] and give its measured Tumor:Muscle ratio. 31.6

What value of measured Tumor:Muscle ratio is listed for Nc1ccc(CCCC(=O)NCC(=O)N[C@@H](CCCCNC(=O)CN2CCN(CC(=O)[O-])CCN(CC(=O)[O-])CCN(CC(=O)[O-])CC2)C(=O)NC[C@H]2CC[C@H](C(=O)N[C@@H](Cc3ccc4ccccc4c3)C(=O)NCCCC[C@H](NC(=O)N[C@@H](CCC(=O)O)C(=O)O)C(=O)O)CC2)cc1.[68Ga+3] [^68Ga-HTK03087] ? 66.6

Find the recorded Tumor:Muscle ratio belonging to O=C([O-])CN1CCN(CC(=O)[O-])CCN(CC(=O)NCCCC[C@H](NC(=O)CNC(=O)CCCc2ccc(Br)cc2)C(=O)NC[C@H]2CC[C@H](C(=O)N[C@@H](Cc3ccc4ccccc4c3)C(=O)NCCCC[C@H](NC(=O)N[C@@H](CCC(=O)O)C(=O)O)C(=O)O)CC2)CCN(CC(=O)[O-])CC1.[68Ga+3] [^68Ga-HTK03058] and report it. 8.04

Look up Tumor:Muscle ratio: O=C([O-])CN1CCN(CC(=O)[O-])CCN(CC(=O)NCCCC[C@H](NC(=O)CNC(=O)CCCc2ccccc2)C(=O)NC[C@H]2CC[C@H](C(=O)N[C@@H](Cc3ccc4ccccc4c3)C(=O)NCCCC[C@H](NC(=O)N[C@@H](CCC(=O)O)C(=O)O)C(=O)O)CC2)CCN(CC(=O)[O-])CC1.[68Ga+3] [^68Ga-HTK03056] 49.7

For the molecule O=C([O-])CN1CCN(CC(=O)[O-])CCN(CC(=O)NCCCC[C@H](NC(=O)CNC(=O)CCCc2ccc(F)cc2)C(=O)NC[C@H]2CC[C@H](C(=O)N[C@@H](Cc3ccc4ccccc4c3)C(=O)NCCCC[C@H](NC(=O)N[C@@H](CCC(=O)O)C(=O)O)C(=O)O)CC2)CCN(CC(=O)[O-])CC1.[68Ga+3] [^68Ga-HTK03085] , what Tumor:Muscle ratio is on record? 33.2

// returns reported Tumor:Muscle ratio for input O=C([O-])CN1CCN(CC(=O)[O-])CCN(CC(=O)NCC2CCC(C(=O)NC(Cc3ccc4cc5ccccc5cc4c3)C(=O)NCCCCC(NC(=O)NC(CCC(=O)O)C(=O)O)C(=O)O)CC2)CCN(CC(=O)[O-])CC1.[68Ga+3] (centres unmarked) [^68Ga-HTK03027] 35.0

Which value of Tumor:Muscle ratio has been reported for CCCCCCC(NC(=O)C1CCC(CNC(=O)CN2CCN(CC(=O)[O-])CCN(CC(=O)[O-])CCN(CC(=O)[O-])CC2)CC1)C(=O)NCCCCC(NC(=O)NC(CCC(=O)O)C(=O)O)C(=O)O.[68Ga+3] (centres unmarked) [^68Ga-HTK03026] in the records? 52.8

Data request, read-out Tumor:Muscle ratio, for O=C([O-])CN1CCN(CC(=O)[O-])CCN(CC(=O)NCC2CCC(C(=O)NC(Cc3ccc4ccc5cccc6ccc3c4c56)C(=O)NCCCCC(NC(=O)NC(CCC(=O)O)C(=O)O)C(=O)O)CC2)CCN(CC(=O)[O-])CC1.[68Ga+3] (centres unmarked) [^68Ga-HTK03029] 21.3
